These measurements were taken from paper PMC2756588.

# MEASUREMENT TARGET: T1, Lsb3, P43603
# T1 sequence (P43603 385-451, looked up): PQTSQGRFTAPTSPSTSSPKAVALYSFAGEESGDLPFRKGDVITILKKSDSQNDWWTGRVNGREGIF
# ASSAY: SPOT array
# CONDITION DETAILS: median of control spots 406
MEASURED PARAMETER: SPOT intensity

Example entries and their recorded answers appear below.
SAPDIPPRSPNRNAH = 207
APKHAPPPVPNETDN = 0
NFLRLLIGLPSQNEL = 0
AATTSTPPLPRRRAT = 877

P = TSFKGRPKPPKTLKH
Q = QRIRKIPGIPLMSVG
# min-compare on SPOT intensity between P and Q The response must carry the label of the picked entry.
P
(P: 0, Q: 51)
